Form field: DNA Pol (one value per entry).
target.desc: P. falciparum apicoplast DNA polymerase (Pf-apPOL) (Plasmodium falciparum)
Sequence (Q8ILY1 entry or part of it): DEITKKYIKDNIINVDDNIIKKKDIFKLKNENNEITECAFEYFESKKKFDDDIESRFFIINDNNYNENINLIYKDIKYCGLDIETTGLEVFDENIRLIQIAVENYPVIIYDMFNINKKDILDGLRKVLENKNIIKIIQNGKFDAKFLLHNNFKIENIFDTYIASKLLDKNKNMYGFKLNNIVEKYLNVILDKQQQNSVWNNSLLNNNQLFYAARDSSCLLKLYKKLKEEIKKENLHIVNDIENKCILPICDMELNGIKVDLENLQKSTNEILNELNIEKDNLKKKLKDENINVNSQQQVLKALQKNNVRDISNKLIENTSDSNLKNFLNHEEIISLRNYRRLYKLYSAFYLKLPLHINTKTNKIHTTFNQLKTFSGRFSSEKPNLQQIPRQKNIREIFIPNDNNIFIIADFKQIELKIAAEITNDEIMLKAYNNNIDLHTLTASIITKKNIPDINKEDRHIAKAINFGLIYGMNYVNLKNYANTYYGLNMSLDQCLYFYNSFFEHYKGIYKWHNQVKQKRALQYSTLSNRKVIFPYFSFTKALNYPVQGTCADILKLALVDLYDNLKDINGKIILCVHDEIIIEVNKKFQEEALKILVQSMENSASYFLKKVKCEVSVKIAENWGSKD
procedure.summary: Fluorescence-based high-throughput DNA polymerase assay (molecular beacon), primary screen and dose-response
Assay type: biochemical
condition.set: 'DNA Pol' of the 186 hits list (primary screen result); unit not given; 90 min, 10 µM

- molecule: "COc1ccc(S(=O)(=O)/N=C2\\NC(=O)/C(=C3\\C(=O)Nc4ccc([N+](=O)[O-])cc43)S2)cc1"
  DNA Pol: 41
- molecule: "COc1ccc2c(c1)C(c1ccccc1OC)CC(=O)O2 (stereo not shown)"
  DNA Pol: 27
- molecule: "N#Cc1c(C2CCCCC2)nc(Sc2ccc(C(F)(F)F)cc2[N+](=O)[O-])[nH]c1=O"
  DNA Pol: 99
- molecule: "CC(C)(C)c1cc(C(=O)C(C#N)=NNc2cccc(Cl)c2)no1"
  DNA Pol: 96
